- System: breast line MDA468
- experimental protocol: In vitro cell culture growth assay (MTS), MDA468
- Assay type: cell-based, human
- study conditions: Homo sapiens, 72 h, MDA468 cells, three days after drug treatment
Recorded pIC50 by entry
Scale: pIC50 equals -log10([C]), with [C] in mol/L.

Examples with answers:
smiles string | pIC50
c1cc2cc(-c3nc(N4CCOCC4)c4cnn([C@H]5CCCNC5)c4n3)ccc2[nH]1 | 4.92
CC(=O)Nc1ccc(-c2nc(N3CCOCC3)c3cnn(-c4ccccc4)c3n2)cn1 | 4.22
CC(=O)NCc1ccc(-c2nc(N3CCOCC3)c3cnn(-c4ccccc4)c3n2)cc1 | 4.66

Next compound, pIC50 to be filled in.
`CCOC(=O)N1CCC(n2ncc3c(N4CCOCC4)nc(-c4ccc(Nc5ncc[nH]5)cc4)nc32)CC1` yielded pIC50 of 5.64
